Just for reference, ChEMBL document CHEMBL1136713 is where these values come from.

- system under test: Cholinesterase (Homo sapiens)
- Sequence (P06276 whole entry): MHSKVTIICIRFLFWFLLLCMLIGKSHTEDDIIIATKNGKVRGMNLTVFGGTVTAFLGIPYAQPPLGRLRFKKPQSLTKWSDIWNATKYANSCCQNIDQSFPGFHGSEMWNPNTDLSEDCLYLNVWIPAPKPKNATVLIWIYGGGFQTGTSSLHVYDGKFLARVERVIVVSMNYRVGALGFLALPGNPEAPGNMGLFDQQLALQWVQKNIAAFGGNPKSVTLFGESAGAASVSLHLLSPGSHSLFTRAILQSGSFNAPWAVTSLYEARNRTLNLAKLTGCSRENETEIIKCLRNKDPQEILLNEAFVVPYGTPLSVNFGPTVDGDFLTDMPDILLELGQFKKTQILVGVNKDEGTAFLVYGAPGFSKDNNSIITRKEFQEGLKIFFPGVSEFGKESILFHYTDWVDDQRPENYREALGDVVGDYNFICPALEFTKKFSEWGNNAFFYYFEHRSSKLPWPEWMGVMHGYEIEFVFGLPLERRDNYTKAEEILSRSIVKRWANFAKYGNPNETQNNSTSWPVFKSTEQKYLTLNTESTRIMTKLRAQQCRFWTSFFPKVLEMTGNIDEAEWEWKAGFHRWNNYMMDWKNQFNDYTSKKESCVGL
pIC50: −log10 of the molar value.
Listing of recorded pIC50 by entry.
test readout: pIC50

compound	test readout	result value
CCCOc1ccccc1C[N+](C)(CC)CCCCCC(=O)N(C)CCCCCCCCN(C)C(=O)CCCCC[N+](C)(CC)Cc1ccccc1OCCC (centres undefined)	pIC50	7.08
CCCOc1ccccc1CN(CC)CCCCCC(=O)N(C)CCCCCCCCN(C)C(=O)CCCCCN(CC)Cc1ccccc1OCCC	pIC50	6.78
CCN(CCCCCC(=O)N(C)CCCCCCCCN(C)C(=O)CCCCCN(CC)Cc1ccccc1Cl)Cc1ccccc1Cl	pIC50	5.39
CC[N+](C)(CCCCCC(=O)N(CCCCCCCCN(C(=O)CCCCC[N+](C)(CC)Cc1ccccc1OC)C(C)C)C(C)C)Cc1ccccc1OC (centres undefined)	pIC50	5.78
